FYI, the data here is from ChEMBL document CHEMBL5724914.

experiment: The drug is tested on WLS-027 corresponding to human gut metagenome with ENA study accession number: PRJEB37062 and ENA sample accession number: ERS12561744 for biotransformation under anaerobic condition. The drug concentrations were measured over 9 timepoints collected between 0 and 24 hours of incubation by liquid-chromatography-coupled mass spectrometry (LC–MS); details: 2 µM; further: call rule not given here
measurementKind: Bacterial Biotransformation

Please review the entries below; each comes with its answer.
CN1CCN(C(=O)O[C@H]2c3nccnc3C(=O)N2c2ccc(Cl)cn2)CC1: Compound NOT metabolized
CN1CCOC(c2ccccc2)c2ccccc2C1 (stereo not given): Compound metabolized
CC[C@@H](CO)NC(=O)[C@@H]1C=C2c3cccc4c3c(cn4C)C[C@H]2N(C)C1.O=C(O)/C=C\C(=O)O [METHYSERGIDE MALEATE]: Compound NOT metabolized
CC(C(=O)O)c1ccc2c(c1)Cc1cccnc1O2 (stereo not given): Compound metabolized
CN1C[C@H](C(=O)N[C@]2(C)O[C@@]3(O)[C@@H]4CCCN4C(=O)[C@H](Cc4ccccc4)N3C2=O)C=C2c3cccc4[nH]cc(c34)C[C@H]21.CN1C[C@H](C(=O)N[C@]2(C)O[C@@]3(O)[C@@H]4CCCN4C(=O)[C@H](Cc4ccccc4)N3C2=O)C=C2c3cccc4[nH]cc(c34)C[C@H]21.O=C(O)C(O)C(O)C(=O)O [ERGOTAMINE TARTRATE]: Compound metabolized

// each listed compound needs a value for Bacterial Biotransformation
1. CC(O)(CS(=O)(=O)c1ccc(F)cc1)C(=O)Nc1ccc(C#N)c(C(F)(F)F)c1 (stereo not given) [BICALUTAMIDE]
2. Cc1ccc(S(=O)(=O)NC(=O)NN2CCCCCC2)cc1 [TOLAZAMIDE]

Compound NOT metabolized
Compound metabolized

###

conditions: human gut metagenome, 24 h, 2 µM
measurementKind: Bacterial Biotransformation

Please review the following examples before continuing.
CNC(=C[N+](=O)[O-])NCCSCc1csc(CN(C)C)n1: Compound metabolized
OC(Cn1cncn1)(Cn1cncn1)c1ccc(F)cc1F: Compound metabolized
COC(=O)[C@H]1[C@H]2C[C@@H]3c4[nH]c5cc(OC)ccc5c4CCN3C[C@H]2C[C@@H](OC(=O)c2cc(OC)c(OC)c(OC)c2)[C@@H]1OC: Compound metabolized
CC(C)NCC(O)COc1ccc(CCOCC2CC2)cc1 (stereo not given): Compound metabolized
O=C1[C@H](CC[C@H](O)c2ccc(F)cc2)[C@@H](c2ccc(O)cc2)N1c1ccc(F)cc1: Compound NOT metabolized

// batch mode: one Bacterial Biotransformation value per listed entry
1. C[C@@H]1CC[C@H]2[C@@H](C)C(=O)O[C@@H]3O[C@@]4(C)CC[C@@H]1[C@]32OO4
2. COC(=O)Nc1nc2ccc(C(=O)c3ccccc3)cc2[nH]1
3. CCCCc1nc(Cl)c(CO)n1Cc1ccc(-c2ccccc2-c2nn[nH]n2)cc1
4. Cc1ccccc1N1C(=O)c2cc(S(N)(=O)=O)c(Cl)cc2NC1C (stereo not given)
5. O=C(NCc1ccccc1)OCCO [BURAMATE]
6. CC(CN1c2ccccc2Sc2ccccc21)N(C)C (stereo not given)

Compound metabolized
Compound metabolized
Compound metabolized
Compound NOT metabolized
Compound NOT metabolized
Compound NOT metabolized

###

test: The drug is tested on Z-005 corresponding to metagenome with ENA study accession number: PRJEB37062 and ENA sample accession number: ERS12561805 for biotransformation under anaerobic condition. The drug concentrations were measured over 9 timepoints collected between 0 and 24 hours of incubation by liquid-chromatography-coupled mass spectrometry (LC–MS); details: 2 µM
measurementKind: Bacterial Biotransformation

Recorded Bacterial Biotransformation, per entry:
CCOC(=O)[C@H](CCc1ccccc1)N[C@H]1CCc2ccccc2N(CC(=O)O)C1=O: Compound metabolized
CC(Oc1c(Cl)cccc1Cl)C1=NCCN1 (configuration not stated): Compound NOT metabolized
CC(CN(C)C)CN1c2ccccc2CCc2ccccc21.O=C(O)/C=C\C(=O)O (configuration not stated) [TRIMIPRAMINE MALEATE]: Compound NOT metabolized
O=c1[nH]c2ccccc2n1CCCN1CCC(n2c(=O)[nH]c3cc(Cl)ccc32)CC1: Compound NOT metabolized
Br.CN(C)CCCC1(c2ccc(F)cc2)OCc2cc(C#N)ccc21 (configuration not stated) [CITALOPRAM HYDROBROMIDE]: Compound NOT metabolized

Go through the list and state Bacterial Biotransformation for each entry.
1. O=C(CCCN1CCC(O)(c2ccc(Cl)cc2)CC1)c1ccc(F)cc1
2. COc1c(C)c2c(c(O)c1C/C=C(\C)CCC(=O)OCCN1CCOCC1)C(=O)OC2 [MYCOPHENOLATE MOFETIL]
3. COC(=O)Nc1nc2ccc(C(=O)c3ccccc3)cc2[nH]1
4. CCc1nc(N)nc(N)c1-c1ccc(Cl)cc1

1: Compound NOT metabolized; 2: Compound metabolized; 3: Compound metabolized; 4: Compound NOT metabolized
